- Tested on: PPARg:RXRa 30nM:10nM, anti-RXR (NR concentration 30 nM, RXRa partner concentration 10 nM)
- protocol_text: PBM binding z-score (relative to random genomic background probes); higher = stronger binding; sequences stand for … in GC…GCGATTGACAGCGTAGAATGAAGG
# PBM binding z-score >= 2 gives T, anything below gives F

| record_sequence | assigned_category |
| --- | --- |
| GATACAGGGTCAAGGCCAGACTACGCGTATTGAT | T |
| CCTGCTAGGTCGTGGTCAGCTAATCTACAGTATG | F |
| TCTAGTCGGTCACGGAGGTCACACACGACGGGTA | T |
| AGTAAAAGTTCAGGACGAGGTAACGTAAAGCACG | F |
| AGCACGAGGGCAATGAGTTGATAGCACGGGTGGC | F |
| ACTAGCAGGCCAAGTTTGGGTCGCTCAAACAAAG | F |
| ATTTGTAGGTTAGCTGGGGTCATTCAGACTAGGC | T |
| GCGACTGGGGCGAAGCAGGTTACCATAAGGTTGG | F |
| AGTCAAAGTTCATCTAGGTAACGCAAGATATGCT | T |
| CCAGACAGGTGAAAGGTACCTCAGTCTGGTACGC | T |
| TCTGCTAGGTCAGTTTGTCAGCTAACGAGCTGCC | F |
| ATCTCTAGGAAACAAGTTCAGTGAAAGAGAGGAC | F |
| CCTGCTAGGTCATGGTCAGTTAATCTACAGTATG | F |
| TCTAGCAGGCCACAGGGTCACTCAAGAGGTACGG | T |
| CGTCCAAGTTCAGCAGGTCAGTGAAAGCGACGTG | F |
| CCTAGTAGGCCAGGGTCACTCAAGCATTTCGCTT | F |
| GTACCATGGTGAATAGGTCGTTGATGAGTAGGCG | F |
| GCTAGTCGGTCAGTAAAAGGTCACACACCGGTCG | T |
| CCTGACAGGTGAAAGGTAACTCAGTCTGGTACGC | T |
| TTACCAAGGTGAGCTGAGGTCGTGGATCCAACTC | F |
| TCTCGGAGGACACGAAGGTCAGAACTTTCCAGAG | T |
| TCTTGTAGATCAATAGAGGTTGAGAAAGTGCGCT | T |
| TAGCCTAGGTCAGGTCGGGCCAGTATACGCTATA | F |
| TAGCCTAGGACATGGGCCAGTATACCACGCGAAC | F |
| CCTACTTGGTCAGGAGGTCACACACCGGATATGA | F |
| CGTCCAAGGTCAAAGGACAGTGAAGAGATGACGG | T |
| TCTTGTAGATCAAGCAGGTTAAGAAAGCCTGAGT | T |
| CGAACTAGGTGAGAACAGGACAGTGAAGGATGAT | F |
| CCTCGGAGGACAACAGGAGGTAAGAGCTGCCAGA | F |
| TCTAGTTGGGCACGGAGGTCACACACGACGGGTA | T |
| CCTACTGGGCCAACAGGTCATTGATATCAACGTT | T |
| CATACGGGGTCAGCTAGGCCAGAGTAGGGACGGC | T |
| AGAATGAGGCTACCAAAGATCAGGGAAACGCTTG | F |
| AGAATGAGGTTATACGTAGATCAGGGGAGAAAGT | F |
| GCTCGGAGGACAAAGTCAGAGCTTTGTCCGTAGA | F |
| ATATGTAGGTTAATGGTCATTCAGGTTGGTTCGC | T |
| ATGTCTAGGTAAAGTTCAGTGAAAGATCGATAGA | T |
| GCTTGTCGATCAAGGTTAAGAAAGACTAAGCTAA | F |
| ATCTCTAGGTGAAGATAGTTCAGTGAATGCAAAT | F |
| TCGAGTAGATTACCAATGGGGCATTCAGCTTTCT | F |
| AGAATGAGGTTACCAAACATCAGGGAAACGCTTG | F |
| ATCTCTAGGTAAAGTACAGTGAAAGATCGATAGA | F |

###

- Tested on: PPARa:RXRa (NR concentration 270 nM, RXRa partner concentration 90 nM)
- protocol_text: PBM binding z-score (relative to random genomic background probes); higher = stronger binding; sequences stand for … in GC…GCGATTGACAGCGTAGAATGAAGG
Examples of sequences with documented PBM binding z-score follow.

| record_sequence | system_under_test | PBM binding z-score |
| --- | --- | --- |
| AGAATGAGGTTATACGTAGATCAGGGATGAAAGT | PPARa:RXRa (NR concentration 270 nM, RXRa partner concentration 90 nM) | 3.09 |
| ATCTCTAGGTAACAAGTTCAGTGATAGAGAGGAC | PPARa:RXRa (NR concentration 270 nM, RXRa partner concentration 90 nM) | 1.34 |
| AGTCAAAGTTCATCTAGGTAACTTAAGATATGCT | PPARa:RXRa (NR concentration 270 nM, RXRa partner concentration 90 nM) | 4.6 |
| ACTCGGAGGACAAAGGACAGAGCTACGCCAGTGA | PPARa:RXRa (NR concentration 270 nM, RXRa partner concentration 90 nM) | -0.215 |
| ATCTCTAGGTAAAGATAGTTCACTGAATGCAAAT | PPARa:RXRa (NR concentration 270 nM, RXRa partner concentration 90 nM) | 1.26 |
| ATTGAAAGGTCGACGAGGTGAGTATACACCGTTT | PPARa:RXRa (NR concentration 270 nM, RXRa partner concentration 90 nM) | 4.55 |
| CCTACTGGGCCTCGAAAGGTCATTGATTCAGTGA | PPARa:RXRa (NR concentration 270 nM, RXRa partner concentration 90 nM) | 4.05 |
| TCTTCTAGATCAATAGAGGTTAAGAAAGTGCGCT | PPARa:RXRa (NR concentration 270 nM, RXRa partner concentration 90 nM) | 1.9 |

###

- Tested on: PXR:RXRa (NR concentration 270 nM, RXRa partner concentration 90 nM)
- protocol_text: PBM binding z-score (relative to random genomic background probes); higher = stronger binding; sequences stand for … in GC…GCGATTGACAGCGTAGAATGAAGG
# PBM binding z-score per record follows

| record_sequence | PBM binding z-score |
| --- | --- |
| GTACCACGGTGAATAGGTCGTTGATGAGTAGGCG | 0.0182 |
| ACTAGTTGGTCAGCTGAGGTCACACAGAATTCGG | 5.36 |
| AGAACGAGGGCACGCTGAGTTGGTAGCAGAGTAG | 0.612 |
| ACTTACGGGTCAACGAGGTTACAGCACGCGTATA | 5.25 |
| CGAACTACGTCAGAACAGGACAGTGAAGGATGAT | -0.524 |
| ACTAGCAGGCCAAGGGTCAGTCAAGATTAGTCCG | 1.69 |
| GCTAGTTGGTCAGTAAAAAGTCACACACCGGTCG | 0.0868 |
| ACTTACGGGTCAACGAGGTTAAAGCACGCGTATA | 5.38 |
| TCTTGTAGATCAGCAGGTTAAGAACGCTGGCCAA | -0.00865 |
| AGAACGAGTGCAATGAGTTGATAGCACGGGTGGC | 1.9 |
| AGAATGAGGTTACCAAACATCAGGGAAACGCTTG | 0.954 |
| TCATATAGGTAAACGCTAGGTGAAAGTCCGATCT | 0.584 |
| ACTTACGGGTCAACAAGGTTATAGCACGCGTATA | 4.49 |
| GGAACGAGGGCAAGTTGATTGCAGAGTTTGATGG | 0.704 |
| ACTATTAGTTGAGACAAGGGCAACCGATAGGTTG | 0.594 |
| AGAATGAGGTTATAAAGATCAGGGAATTGCGGTC | 1.2 |
| AGAATGATGTTATACGTAGATCAGGGAAGAAAGT | -0.0656 |
| GGAACCAGGGCAAGTTGATAGCAGAGTTTGATGG | 0.554 |
| GCTTGTACATCAAGGTTAAGAAAGACTAAGCTAA | 0.266 |
| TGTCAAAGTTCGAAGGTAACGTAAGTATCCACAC | 1.64 |
| CCTACTGGGCCGAAAAGGTCATTGATGCCGATAA | 4.56 |
| CCTCGCAGGCCAATCTGGGTCACTCAAGGCTTGA | 1.21 |
| CGTCCTAGGTCAAAGGTCAGTGAAGAGATGACGG | 6.08 |
| TCCAGTAGGTTAGGGGCATTCAGAATGGCGTCGA | 0.69 |
| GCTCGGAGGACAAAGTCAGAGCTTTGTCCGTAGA | -0.547 |
| AGAATGAGGTTATTAAGATCAGGGCATTGCGGTC | 1.83 |
| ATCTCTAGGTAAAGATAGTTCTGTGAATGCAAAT | 0.067 |
| TCAGACAGGTGAAGGTACCTCAGGTACGCAGTCG | 0.248 |
| AGAATGAGGTTAAGATCCGGGAAACAGAATACAT | 0.953 |
| GCAACGAGGGCAAGTTGATAGCAGAGTTTGATGG | 0.924 |
| AGTCAAAGTTCACTAGGGAACGTAAGATTCAGCT | 3.94 |
| CGTCCAAGGTCAAGGACAGTGAAAGAGACTCGAA | 3.63 |
